Recorded values, source patent US5296496A.

# target or test system: human leukocyte elastase (HLE) (Homo sapiens)
# Sequence (P08246 30-267): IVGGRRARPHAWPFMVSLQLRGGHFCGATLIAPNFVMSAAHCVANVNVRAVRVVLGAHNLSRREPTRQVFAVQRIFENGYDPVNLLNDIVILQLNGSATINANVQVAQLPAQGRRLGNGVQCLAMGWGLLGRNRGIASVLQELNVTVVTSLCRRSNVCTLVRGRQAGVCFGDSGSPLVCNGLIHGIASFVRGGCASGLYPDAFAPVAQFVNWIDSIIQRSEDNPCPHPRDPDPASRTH
experimental readout: Ki
Form entry: enter the amount, then its unit.

### Prompt Which Ki value is on record for `CCOP(=O)(OCC)OCN1C(=O)c2c(C(C)C)cc(OC)cc2S1(=O)=O` ?
### Response 0.035 nM
